Provide the reported viability at 24 h, 1 µM of each item.
- assay.details: MTT assay of cell viability
- Assay type: cell-based
- study.conditions: human, MCF-7 cells, 24-hr exposure, 1 μM, relative to untreated control
Answers are plain numbers, in %.

{"columns": ["compound", "viability at 24 h, 1 µM, %"],
 "data": [
  ["CC(C)=CC1C(COC(=O)c2cc3c(cc2Cl)OCO3)C1(C)C (stereo not shown)", 100],
  ["Sc1ccc2ccccc2c1CNCc1ccccc1", 100],
  ["O=C(c1cc(Br)ccc1O)c1cc(Br)ccc1O", 100]
]}

Next up:
Which value of viability at 24 h, 1 µM has been reported for O=C(CC(c1ccccc1)N1CCCCC1)c1ccccc1 (stereo not shown) in the records?
100

* * *

- experimental.system: estrogen receptor-alpha (ER) (Homo sapiens, UniProt P03372)
- Sequence (P03372 whole entry): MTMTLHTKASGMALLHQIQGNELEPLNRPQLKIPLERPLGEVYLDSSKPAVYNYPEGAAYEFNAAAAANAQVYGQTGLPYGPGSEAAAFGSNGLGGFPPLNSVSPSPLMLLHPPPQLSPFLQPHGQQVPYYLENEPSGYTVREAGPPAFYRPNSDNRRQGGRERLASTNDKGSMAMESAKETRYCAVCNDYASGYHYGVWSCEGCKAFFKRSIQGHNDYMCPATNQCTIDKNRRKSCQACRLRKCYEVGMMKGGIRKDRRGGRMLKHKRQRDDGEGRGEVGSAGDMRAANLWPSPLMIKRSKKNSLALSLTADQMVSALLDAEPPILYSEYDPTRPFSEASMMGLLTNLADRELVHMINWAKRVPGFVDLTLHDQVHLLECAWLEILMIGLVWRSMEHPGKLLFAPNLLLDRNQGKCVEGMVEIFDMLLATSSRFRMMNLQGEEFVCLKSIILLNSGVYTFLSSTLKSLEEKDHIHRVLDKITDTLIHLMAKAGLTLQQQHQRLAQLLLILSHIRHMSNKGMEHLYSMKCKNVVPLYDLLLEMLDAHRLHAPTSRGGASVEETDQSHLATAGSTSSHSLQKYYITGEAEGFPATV
- assay.details: constitutive ER activity, ERE-TK-Luc reporter, in anti-estrogen resistant LCC9 cells
- Type: cell-based
- Design: LCC9 cells in 24-well dishes were transfected overnight with the ERE-TK-Luc reporter plasmid; endogenous in cells; host or cells: LCC9
- study.conditions: LCC9, no E2, 24 hr; read-out: IC50 for inhibition of ER activity in LCC9
- Method: For MCF-7, luciferase activity is expressed as a fold-change relative to the no E2 control. For LCC9, luciferase activity is expressed relative to the control without the reporter present. Values plotted are means ± SEMs of four replicate wells. […] The cells were then treated with the indicated concentrations of the six bioactive compounds or vehicle only (DMSO) for 24-hr and assayed for luciferase activity. Luciferase activity is expressed as a percentage of the DMSO control. […]
reported.metric: IC50

Please review the entries below; each comes with its answer.
{"columns": ["compound", "IC50"],
 "data": [
  ["OCC(CCc1c[nH]c2ccccc12)c1c[nH]c2ccccc12 (stereo not drawn)", "≤ 1000 nM"],
  ["Sc1ccc2ccccc2c1CNCc1ccccc1", "30000 nM"],
  ["O=C(c1cc(Br)ccc1O)c1cc(Br)ccc1O", "≤ 1000 nM"]
]}

I'm hoping you can list IC50 for every compound here, please.
1. CC(C)=CC1C(COC(=O)c2cc3c(cc2Cl)OCO3)C1(C)C (stereo not drawn)
2. c1ccc2c(c1)-c1ccccc1C2N1CC2CCC(CC2)C1

1: 4000 nM; 2: ≤ 1000 nM

Which value of IC50 has been reported for O=C(CC(c1ccccc1)N1CCCCC1)c1ccccc1 (stereo not drawn) in the records?
≤ 1000 nM

* * *

- experimental.system: ER Glu323Ala (Homo sapiens, UniProt P03372, E323A)
- Construct: expressed in transfected cells; host or cells: MDA-MB-231
- Sequence (P03372 whole entry E323A): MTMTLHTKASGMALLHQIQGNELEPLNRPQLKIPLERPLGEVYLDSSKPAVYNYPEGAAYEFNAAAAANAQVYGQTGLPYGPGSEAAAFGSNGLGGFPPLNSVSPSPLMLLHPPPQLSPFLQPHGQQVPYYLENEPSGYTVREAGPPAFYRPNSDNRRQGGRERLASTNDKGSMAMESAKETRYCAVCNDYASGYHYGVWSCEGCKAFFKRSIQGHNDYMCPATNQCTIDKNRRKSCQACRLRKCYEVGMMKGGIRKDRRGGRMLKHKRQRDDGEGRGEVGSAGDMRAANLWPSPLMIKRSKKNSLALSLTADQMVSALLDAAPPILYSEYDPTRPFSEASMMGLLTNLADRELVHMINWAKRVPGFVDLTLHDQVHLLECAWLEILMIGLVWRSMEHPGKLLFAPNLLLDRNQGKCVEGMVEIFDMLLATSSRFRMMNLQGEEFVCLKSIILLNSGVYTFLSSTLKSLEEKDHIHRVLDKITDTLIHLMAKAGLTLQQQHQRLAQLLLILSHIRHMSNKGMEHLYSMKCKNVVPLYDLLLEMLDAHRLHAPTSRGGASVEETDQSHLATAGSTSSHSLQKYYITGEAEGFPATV
- assay.details: ER mutation analysis, ERE-TK-Luc reporter in transfected MDA-MB-231 cells
- Assay type: cell-based
- study.conditions: MDA-MB-231 transfected with mutant ER, E2 10 nM, 24 hr
reported.metric: IC50
Could you give the number and then its unit, please?

{"columns": ["molecule", "experimental.system", "IC50"],
 "data": [
  ["O=C(CC(c1ccccc1)N1CCCCC1)c1ccccc1 (centres unmarked)", "ER Glu323Ala (Homo sapiens, UniProt P03372, E323A)", "0.9 µM"]
]}

Which value of IC50 has been reported for Oc1cc(CN2COc3ccccc32)c(O)cc1CNC1CCCCC1 [A7, reference compound] in the records?
13 µM
